- experimentalProtocol: Inhibition of TEM1 beta-lactamase assessed as residual activity at 100 uM at pH 5 using acetate buffer by spectrophotometry; values are per cent of control
parameterMeasured: residual activity (%)

>>> observed("CCOC(=O)C1CC(=O)NC1C(=O)OCC (stereo unspecified)")
86
>>> observed("CCOC(=O)CCC1(C(=O)OCC)CCC(=O)N1 (stereo unspecified)")
80
>>> observed("O=C(O)CC(CC(=O)O)(NC(=O)COc1ccccc1)C(=O)O")
100
>>> observed("NC(C(=O)O)C(CC(=O)O)C(=O)O (stereo unspecified)")
90
>>> observed("COC(=O)C(N)(CC(=O)O)CC(=O)O")
92
>>> observed("COC(=O)CC(N)(CC(=O)OC)C(=O)O")
87

====

- Test system: Bacillus cereus
- experimentalProtocol: Inhibition of Bacillus cereus BC2 beta-lactamase assessed as residual activity at 100 uM at pH 7 using HEPES buffer by spectrophotometry; values are per cent of control
// reported residual activity for each item listed
parameterMeasured: residual activity

>>> observed("COC(=O)C(CC(=O)O)(CC(=O)O)NC(=O)COc1ccccc1")
"86%"
>>> observed("COC(=O)CC(N)(CC(=O)OC)C(=O)O")
"100%"
>>> observed("COC(=O)C(N)(CC(=O)O)CC(=O)O")
"100%"
>>> observed("COC(=O)C(N)(CC(=O)OCc1ccccc1)CC(=O)OCc1ccccc1")
"100%"
>>> observed("COC(=O)CC(CC(=O)OC)(NC(=O)Cc1ccccc1)C(=O)OC")
"100%"
>>> observed("CCOC(=O)CC(N)(CC(=O)OCC)C(=O)OCC")
"92%"

====

- experimentalProtocol: Competitive inhibition of TEM1 beta-lactamase at pH 5
parameterMeasured: Ki (µM)

>>> observed("NC(CC(=O)O)(CC(=O)O)C(=O)O")
150

====

// reported residual activity for each item listed
- studySystem: Beta-lactamase VIM-4 (Pseudomonas aeruginosa)
- experimentalProtocol: Inhibition of Pseudomonas aeruginosa VIM4 beta-lactamase assessed as residual activity at 100 uM at pH 7 using HEPES buffer by spectrophotometry; values are per cent of control
parameterMeasured: residual activity (%)

>>> observed("NC(CC(=O)O)(CC(=O)O)C(=O)O")
100
>>> observed("CCOC(=O)CCC1(C(=O)OCC)CCC(=O)N1 (stereo not drawn)")
96
>>> observed("NC(C(=O)O)C(CC(=O)O)C(=O)O (stereo not drawn)")
94
>>> observed("COC(=O)C(N)(CC(=O)O)CC(=O)O")
100
>>> observed("CCOC(=O)C1CC(=O)NC1C(=O)OCC (stereo not drawn)")
94
>>> observed("O=C(O)CC(CC(=O)O)(NC(=O)COc1ccccc1)C(=O)O")
100
>>> observed("COC(=O)C(CC(=O)O)(CC(=O)O)NC(=O)COc1ccccc1")
100
>>> observed("COC(=O)CC(N)(CC(=O)OC)C(=O)O")
100

====

- studySystem: Beta-lactamase (Enterobacter cloacae)
- experimentalProtocol: Inhibition of Enterobacter cloacae P99 beta-lactamase assessed as residual activity at 100 uM at pH 7 using phosphate buffer by spectrophotometry; values are per cent of control
// reported residual activity for each item listed
parameterMeasured: residual activity

>>> observed("CCOC(=O)CCC1(C(=O)OCC)CCC(=O)N1 (stereo not given)")
"100%"
>>> observed("O=C(O)CC(CC(=O)O)(NC(=O)COc1ccccc1)C(=O)O")
"97%"
>>> observed("NC(CC(=O)O)(CC(=O)O)C(=O)O")
"81%"
>>> observed("CCOC(=O)CC(N)(CC(=O)OCC)C(=O)OCC")
"87%"
>>> observed("COC(=O)CC(N)(CC(=O)OC)C(=O)O")
"100%"
>>> observed("NC(C(=O)O)C(CC(=O)O)C(=O)O (stereo not given)")
"100%"
>>> observed("CCOC(=O)C1CC(=O)NC1C(=O)OCC (stereo not given)")
"100%"
>>> observed("COC(=O)C(CC(=O)O)(CC(=O)O)NC(=O)COc1ccccc1")
"85%"
>>> observed("COC(=O)C(N)(CC(=O)O)CC(=O)O")
"100%"
>>> observed("COC(=O)C(N)(CC(=O)OCc1ccccc1)CC(=O)OCc1ccccc1")
"100%"

====

- studySystem: Beta-lactamase OXA-10 (Pseudomonas aeruginosa, UniProt P14489)
- Sequence (P14489 whole entry): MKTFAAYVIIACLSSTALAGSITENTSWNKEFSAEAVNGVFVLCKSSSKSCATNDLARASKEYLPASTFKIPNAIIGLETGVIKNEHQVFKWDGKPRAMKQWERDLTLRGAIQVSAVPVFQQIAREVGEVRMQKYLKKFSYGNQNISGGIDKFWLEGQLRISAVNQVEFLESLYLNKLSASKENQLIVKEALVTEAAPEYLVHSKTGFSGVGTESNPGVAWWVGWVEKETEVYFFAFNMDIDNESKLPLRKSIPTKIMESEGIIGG
- experimentalProtocol: Inactivation of Pseudomonas aeruginosa OXA10 beta-lactamase at pH 7
parameterMeasured: Ki (µM)

>>> observed("NC(CC(=O)OCc1ccccc1)(CC(=O)OCc1ccccc1)C(=O)OCc1ccccc1")
95

====

- Tested on: Bacillus cereus
- experimentalProtocol: Inhibition of Bacillus cereus BC2 beta-lactamase assessed as residual activity at 100 uM at pH 5 using acetate buffer by spectrophotometry; values are per cent of control
parameterMeasured: residual activity (%)

>>> observed("COC(=O)C(CC(=O)O)(CC(=O)O)NC(=O)COc1ccccc1")
100
>>> observed("O=C(O)CC(CC(=O)O)(NC(=O)COc1ccccc1)C(=O)O")
100
>>> observed("COC(=O)C(N)(CC(=O)O)CC(=O)O")
90
>>> observed("NC(C(=O)O)C(CC(=O)O)C(=O)O (stereo not given)")
100
>>> observed("NC(CC(=O)OCc1ccccc1)(CC(=O)OCc1ccccc1)C(=O)OCc1ccccc1")
90

====

- studySystem: Imipenem-hydrolyzing beta-lactamase (Enterobacter cloacae)
- experimentalProtocol: Inhibition of Enterobacter cloacae NMCA beta-lactamase assessed as residual activity at 100 uM at pH 7 using phosphate buffer by spectrophotometry; values are per cent of control
// reported residual activity for each item listed
parameterMeasured: residual activity (%)

>>> observed("COC(=O)C(CC(=O)O)(CC(=O)O)NC(=O)COc1ccccc1")
66
>>> observed("CCOC(=O)C1CC(=O)NC1C(=O)OCC (stereo not drawn)")
100
>>> observed("COC(=O)C(N)(CC(=O)O)CC(=O)O")
94
